Just for reference, ChEMBL document CHEMBL1201862 is where these values come from.

tested on: KM12; assay: NCI tumour cell line growth inhibition, 48 h
Activity calls are given as the source filed them. Rule as the data show it: active = GI50 up to about 1.1 µM and inactive = higher.
Your reply should match one of these outcome classes. active, inactive

Solved entries:
CCOC(=O)CC(=O)Nc1cccc2nc[nH]c12	inactive
COc1ccc(C(=O)O)c(Cc2ccc3ccccc3c2)c1	inactive
CCC1C(c2cc(OC)c(OC)c(OC)c2)c2cc3c(cc2OC1N1CCCC1)OCO3 (configuration not stated)	active
COC(=O)[C@]12CCC(C)(C)C[C@H]1C1=CC[C@@H]3[C@@]4(C)CC[C@H](OC5OC(CO)C(O)C(O)C5OC5OC(CO)C(O)C(O)C5O)C(C)(C)[C@@H]4CC[C@@]3(C)[C@]1(C)CC2 (some centres not stated)	inactive
O=C1/C(=C/c2cccc([N+](=O)[O-])c2)Cc2ccccc21	inactive

Exercise: Which outcome was entered for the compound Nc1nnc(NC(=O)C2=NS(=O)(=O)c3cc(S(N)(=O)=O)c(Cl)cc3N2)[nH]1 in this test?
Solution: inactive
